Cited source: the supplement of paper PMC8728848

MEASURED_ON: Neu5Ac(a2-6)Gal(b1-4)GlcNAc(b1-3)Gal(b1-3)GlcNAc
METHOD_SUMMARY: glycan array binding signal (z-score within array); higher = stronger binding
CONDITION_DESCRIPTION: glycan notation: IUPAC condensed, linker removed
Only a selection was taken, and the strongest signals are over-represented in it overall.
PROPERTY_NAME: glycan array binding signal (z-score)

CVN (Nostoc ellipsosporum), P81180 (protein) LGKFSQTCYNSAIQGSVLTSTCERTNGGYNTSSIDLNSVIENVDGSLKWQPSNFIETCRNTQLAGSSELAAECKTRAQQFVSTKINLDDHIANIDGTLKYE | -0.302
